- Test system: cataract induced left eye: lens
- Protocol Notes: Microscopic observations (histopathology) of lens (Table 12)
- Format: in vivo, New Zealand rabbit
- Reported Conditions: left eye (cataract induced), lens
- Experimental: An illustrative ophthalmic formulation for treatment of eye disease is set forth below: The formulations provided herein below are tested in cataract induced New Zealand rabbits, and the results are discussed herein below. […] All surviving animals were euthanized on Day 29 by overdose of Thiopental Sodium. Before scheduled euthanasia, the animals were fasted overnight (water allowed) and terminal body weights were recorded. […]
Observation Type: Liquefaction, incidence

INSERT INTO results (compound, value_reported) VALUES
  ('O=C(/C=C/c1ccc(O)c(O)c1)OCCc1ccccc1 [Caffeic Acid Phenyl ethyl Ester, caffeic acid phenylethyl ester]', '6/6'),
  ('O=C(/C=C/c1ccc(O)c(O)c1)O[C@H](Cc1ccc(O)c(O)c1)C(=O)O [Rosmarinic acid]', '4/6'),
  ('O=C(O)/C=C/c1ccc(O)c(O)c1 [Caffeic acid]', '4/6'),
  ('O=C(/C=C/c1ccc(O)c(O)c1)NCCc1ccccc1 [Caffeic Acid Phenylethyl Amide, caffeic acid phenylethyl amide]', '5/6');

###

Measured Intraocular Pressure, mean by item
- Test system: intraocular pressure, induced left eye
- Protocol Notes: Intraocular pressure, tonometer (Table 13)
- Assay type: in vivo, New Zealand rabbit
- Parameters: unit not given beside the values
- Reported Conditions: left eye induced/treated, Day 27
Observation Type: Intraocular Pressure, mean

INSERT INTO measurements (compound, experimental_target, observation_type, value_reported) VALUES
  ('O=C(/C=C/c1ccc(O)c(O)c1)NCCc1ccccc1 [Caffeic Acid Phenylethyl Amide, caffeic acid phenylethyl amide]', 'intraocular pressure, induced left eye', 'Intraocular Pressure, mean', 36.27),
  ('O=C(/C=C/c1ccc(O)c(O)c1)OCCc1ccccc1 [Caffeic Acid Phenyl ethyl Ester, caffeic acid phenylethyl ester]', 'intraocular pressure, induced left eye', 'Intraocular Pressure, mean', 36.27),
  ('O=C(O)/C=C/c1ccc(O)c(O)c1 [Caffeic acid]', 'intraocular pressure, induced left eye', 'Intraocular Pressure, mean', 32.12),
  ('O=C(/C=C/c1ccc(O)c(O)c1)O[C@H](Cc1ccc(O)c(O)c1)C(=O)O [Rosmarinic acid]', 'intraocular pressure, induced left eye', 'Intraocular Pressure, mean', 42.62);

###

Measured Intraocular Pressure, mean by item
- Tested on: intraocular pressure, induced left eye
- Protocol Notes: Intraocular pressure, tonometer (Table 13)
- Assay type: in vivo, New Zealand rabbit
- Parameters: unit not given beside the values
- Reported Conditions: left eye induced/treated, Day 9
Observation Type: Intraocular Pressure, mean

INSERT INTO assay_data (molecule, observation_type, value_reported) VALUES
  ('O=C(O)/C=C/c1ccc(O)c(O)c1', 'Intraocular Pressure, mean', 62.17),
  ('O=C(/C=C/c1ccc(O)c(O)c1)OCCc1ccccc1', 'Intraocular Pressure, mean', 84.67),
  ('O=C(/C=C/c1ccc(O)c(O)c1)O[C@H](Cc1ccc(O)c(O)c1)C(=O)O', 'Intraocular Pressure, mean', 78.72),
  ('O=C(/C=C/c1ccc(O)c(O)c1)NCCc1ccccc1 [Caffeic Acid Phenylethyl Amide, caffeic acid phenylethyl amide]', 'Intraocular Pressure, mean', 78.77);
